System: SN12C
Assay: NCI tumour cell line growth inhibition, 48 h
Activity calls are given as the source filed them. No stated cut-off is given here; in the data, active = GI50 up to about 1.1 µM and inactive = higher.
Returns: one label drawn from t for active, f for inactive

Past entries and their recorded results:
{"columns": ["compound", "classification"],
 "data": [
  ["CC(C)(O)[C@@H]1CCC(C)([C@H]2[C@@H](O)CC3(C)C4CC(OC5OC(CO)C(O)C(O)C5O)C5C(C)(C)[C@@H](OC6OCC(O)C(O)C6O)CC[C@@]56C[C@@]46CC[C@]23C)O1 (stereo not given in full)", "f"],
  ["O=C(Nc1nc2ccccc2n1Cc1ccccc1)NC12CC3CC(CC(C3)C1)C2", "f"],
  ["COC(=O)C(Cc1ccccc1)C(=O)NC(CNC(=O)OCc1ccccc1)C(=O)OCc1ccccc1 (stereo not given)", "f"],
  ["O=C(O)/C(Cc1c[nH]nn1)=N\\O", "f"],
  ["CC(C)(C)c1cc(C2COC(=O)COCCOCC(=O)OCCOCCO2)cc(C(C)(C)C)c1O (stereo not given)", "f"],
  ["N#CCCC(C=O)(CCC#N)CCC#N", "f"],
  ["CCOC(=O)/C=C1\\C[C@H](NC(=O)OCc2ccccc2)C(=O)N1CC(=O)OCC", "f"],
  ["O=C(/C=C1/Nc2ccc([N+](=O)[O-])cc2NC1O)c1cccc([N+](=O)[O-])c1 (stereo not given)", "f"],
  ["COC(=O)C(NC(=O)c1ccccc1)c1ccco1 (stereo not given)", "f"],
  ["Nn1c(SCC(=O)O)nc2ccccc2c1=O", "f"]
]}

Req: // outcome(item) with item = "CSc1ccc(/C=C2\N=C(c3ccccc3)N(c3nc4cc(C)c(C)cc4s3)C2=O)cc1"
Resp: f

Req: # iterate: COc1ccc(/C(=N\NC(=N)N)C(c2ccc(OC)cc2)C2OC(=O)c3ccccc32)cc1 (stereo not given)
Resp: f

Req: Entry CC(=O)OC1CCC2(C)C(=CCC3C2CCC2(C)C3CC3OC4(CCC(C)CN4)C(C)C32)C1 (stereo not given) please
Resp: f

Req: Now the compound "COc1ccc2c(c1)C(N)=C(Cc1ccncc1)C2=O"
Resp: f

Req: What do we get for "Cc1nc2ccccc2c(=O)n1/N=C(\N=N\c1cc(Cl)ccc1Cl)c1ccccc1" ?
Resp: f

Req: Now try O=C(c1ccc(Cl)cc1)C1OC12C(=O)Nc1ccccc12 (stereo not given) .
Resp: f

Req: Here is the next compound: "Cc1ccc(C(=O)C(C2=Nc3nnc(N)n3C2=O)C2=Nc3nnc(N)n3C2=O)cc1"
Resp: f

----------
System: MDA-MB-231
Assay: NCI tumour cell line growth inhibition, 48 h
Calls of active or inactive are those of the source. Cut-off read from the data, not from the text of the source: active = GI50 up to about 1.1 µM and inactive = higher.
Respond only with the outcome that fits, drawn from active, inactive

Check out these entries, answers already filled in.
{"columns": ["molecule", "classification"],
 "data": [
  ["CC(C)NC(=O)OCc1c2c(n(C)c1COC(=O)NC(C)C)-c1cc(Cl)c(Cl)cc1CC2", "inactive"],
  ["CC(=O)Nc1ccc(S(=O)(=O)/N=C2\\C=CC(=O)c3ccccc32)cc1", "inactive"]
]}

Now look at this one.
Req: // param item: "COC1=CC(=O)C2=C(C1=O)[C@H]1CC[C@]3(C)[C@@H](OC(C)=O)CC[C@H]3[C@@H]1CC2" ; yields the recorded call
Resp: inactive

----------
Test system: IGROV-1
Assay: NCI tumour cell line growth inhibition, 48 h
Calls of active or inactive are those of the source. Cut-off read from the data, not from the text of the source: active = GI50 up to about 1.1 µM and inactive = higher.
property-name: GI50

Known GI50 results, listed for orientation:
{"columns": ["compound", "test-system", "obs-value"],
 "data": [
  ["CC1(C)CC(=O)C2=C(C1)S/C(=C1/SC3=C(S1)C(=O)CC(C)(C)C3)S2", "IGROV-1", "> 251 µM (inactive)"],
  ["Cc1cc(C)nc(NS(=O)(=O)c2ccc(NC(=O)c3ccc4nc5ccccc5c(Nc5ccc(S(=O)(=O)Nc6nc(C)cc(C)n6)cc5)c4c3)cc2)n1", "IGROV-1", "52.5 µM (inactive)"],
  ["CN(C)c1ccc2nc3c(ccc4ccccc43)[o+]c2c1", "IGROV-1", "12.3 µM (inactive)"],
  ["N#CCCCCCOCCOCCOCCOCCOCCCCCC#N", "IGROV-1", "> 100 µM (inactive)"],
  ["COC(NC(=O)Nc1ccccc1C)(C(F)(F)F)C(F)(F)F", "IGROV-1", "> 100 µM (inactive)"],
  ["NC1CCC[C@@H](O)[C@H]1O (stereo not given in full)", "IGROV-1", "> 100 µM (inactive)"]
]}

Req: May I ask what GI50 has been recorded for CC(=O)Oc1ccc2c(c1)CC[C@@H]1C2[C@@H](O[N+](=O)[O-])C[C@@]2(C)C1CC[C@@H]2O[N+](=O)[O-] (stereo not given in full) ?
Resp: 15.1 µM (inactive)

Req: Please give the result for "CC(C)=CCC\C(C)=C/C=C/C(C)=C\C=C\C(C)=C/C=C/C=C(C)\C=C\C=C(C)/C=C/C=C(/C)CCC=C(C)C" too.
Resp: > 100 µM (inactive)

Req: Then c1ccc(SC23C4C5C6C4C2C6C53)nc1 (stereo not given) ?
Resp: > 100 µM (inactive)

Req: Can you handle "O=c1oc2ccccc2n1CCN1CCCCC1" next?
Resp: > 100 µM (inactive)

----------
Tested on: SNB-75
Assay: NCI tumour cell line growth inhibition, 48 h
Active and inactive are the calls of the source. No stated cut-off is given here; in the data, active = GI50 up to about 1.1 µM and inactive = higher.
Classes to choose from: active, inactive

Req: Test call, this compound: "Cc1ccc(C(=O)N/N=C(\N=N\c2ccc([N+](=O)[O-])cc2)c2ccc(N(CCC#N)CCC#N)cc2C)cc1"
Resp: inactive

----------
System: SK-MEL-2
Assay: NCI tumour cell line growth inhibition, 48 h
Activity calls are given as the source filed them. Rule as the data show it: active = GI50 up to about 1.1 µM and inactive = higher.
property-name: GI50

Below, 8 compounds whose answers are already recorded.
{"columns": ["compound", "test-system", "GI50"],
 "data": [
  ["COc1cc(/C=C/C(=O)OC2C(O)C3CC(OC(=O)c4cc(OC)c(OC)c(OC)c4)CC2N3C)cc(OC)c1OC (configuration not stated)", "SK-MEL-2", "47.1 µM (inactive)"],
  ["O=C(c1ccccc1)N1C(=S)NC(=N/c2ccccc2)/C1=N\\c1ccccc1", "SK-MEL-2", "> 100 µM (inactive)"],
  ["C=CCOC(=O)C1C2OC3(C(C(=O)OC)=C2C(=O)OC)c2ccccc2CCC13 (configuration not stated)", "SK-MEL-2", "> 10 µM (inactive)"],
  ["N#CC(C#N)=C(N)/C(C#N)=C/c1cc(O)c(O)c(Br)c1", "SK-MEL-2", "90.6 µM (inactive)"],
  ["CCOc1cc(C2CC(c3ccc(NS(=O)(=O)c4cc([N+](=O)[O-])ccc4C)cc3)=NN2C(=O)c2ccccc2)ccc1O (configuration not stated)", "SK-MEL-2", "13.7 µM (inactive)"],
  ["Fc1ccc2nc3n(c2c1)C(c1c(Cl)cccc1Cl)SC3 (configuration not stated)", "SK-MEL-2", "> 100 µM (inactive)"],
  ["CSc1nc(-c2ccccc2)c2c(n1)-c1ccccc1CC2", "SK-MEL-2", "> 100 µM (inactive)"],
  ["COc1ccc(C2S/C(=C\\c3ccc([N+](=O)[O-])cc3)C(=O)N2NC(=O)Cc2ccccc2)cc1 (configuration not stated)", "SK-MEL-2", "> 100 µM (inactive)"]
]}

Req: Recorded GI50 for "N[C@H]1CCc2c1nc1c(c2-c2ccccc2)CC[C@@H]1N" , please?
Resp: 18.5 µM (inactive)

Req: Follow-up item: Cc1nn(C(=O)c2ccc(Cl)cc2)c2c1C(c1ccccc1[N+](=O)[O-])SC(=N)N2 (configuration not stated)
Resp: > 10 µM (inactive)

Req: Repeat with CN(C)c1ccc(/C=C(\NC(=O)c2ccccc2)C2=NC(CCC(=O)O)C(=O)O2)cc1 (configuration not stated)
Resp: > 50 µM (inactive)

Req: Input C#CCC(N)(CO)C(=O)O (configuration not stated)
Resp: > 100 µM (inactive)

Req: Now give it for "CN(C)Cc1cc(/N=N/c2ccc(Cl)cc2)cc(CN(C)C)c1O" too.
Resp: 12.9 µM (inactive)

Req: Another compound: COc1c(O)cc2oc(-c3ccc(O)cc3)cc(=O)c2c1O [HISPIDULIN]
Resp: 27.2 µM (inactive)

Req: Now try "CC(=O)Nc1ccc(S(=O)(=O)/N=C2\C=CC(=O)c3ccccc32)cc1" .
Resp: 14.3 µM (inactive)

Req: Field entry: COc1cccc(N2C(=O)/C(=C\c3ccccc3)SC2c2cc(OC)c(OC)c(OC)c2)c1 (configuration not stated)
Resp: 62.1 µM (inactive)

Req: How about "CC(=O)Nc1ccc(-c2nnc(SCC(=O)Nc3ccccc3C)o2)cc1" ?
Resp: > 100 µM (inactive)

Req: Now give it for "CN(C)c1ccc2nc3c(ccc4ccccc43)[o+]c2c1" too.
Resp: 19.6 µM (inactive)

Req: Queued: COCC(OC)C(CC=C(C#N)C#N)OC (configuration not stated)
Resp: > 100 µM (inactive)
